Data origin: ChEMBL document CHEMBL1201862

- System: LOX IMVI
- PROTOCOL SUMMARY: NCI tumour cell line growth inhibition, 48 h
The source made the active and inactive calls. Cut-off read from the data, not from the text of the source: active = GI50 up to about 1.1 µM and inactive = higher.
Measured GI50 accompanies every entry in the list below.

# MOLECULE, SYSTEM TESTED, GI50
records = [
    ("CC(C)(C)C1=CC(=C(c2ccc(-c3c4nc(c(-c5ccc(C(=C6C=C(C(C)(C)C)C(=O)C(C(C)(C)C)=C6)c6cc(C(C)(C)C)c(O)c(C(C)(C)C)c6)cc5)c5ccc([nH]5)c(-c5ccc(C(=C6C=C(C(C)(C)C)C(=O)C(C(C)(C)C)=C6)c6cc(C(C)(C)C)c(O)c(C(C)(C)C)c6)cc5)c5nc(c(-c6ccc(C(=C7C=C(C(C)(C)C)C(=O)C(C(C)(C)C)=C7)c7cc(C(C)(C)C)c(O)c(C(C)(C)C)c7)cc6)c6ccc3[nH]6)C=C5)C=C4)cc2)c2cc(C(C)(C)C)c(O)c(C(C)(C)C)c2)C=C(C(C)(C)C)C1=O", "LOX IMVI", "> 100 µM (inactive)"),
    ("CC1=CC(C/C(C)=C/COc2ccc3ccc(=O)oc3c2)OC1=O (stereo not given)", "LOX IMVI", "> 100 µM (inactive)"),
    ("Cc1cc(NS(=O)(=O)c2ccc(NC(=O)c3ccc(Cl)c4c(Nc5ccc(S(=O)(=O)N=C(N)N)cc5)c5ccccc5nc34)cc2)no1", "LOX IMVI", "28.1 µM (inactive)"),
    ("O=C(O)c1cc(/N=C/c2ccccc2O)cc(C(=O)O)c1", "LOX IMVI", "> 100 µM (inactive)"),
    ("Cc1ccc(S(=O)(=O)C2c3nc4ccccc4cc3-c3nc4ccccc4nc32)cc1 (stereo not given)", "LOX IMVI", "> 100 µM (inactive)"),
]

---

- System: CCRF-CEM
- PROTOCOL SUMMARY: NCI tumour cell line growth inhibition, 48 h
The source made the active and inactive calls. Rule as the data show it: active = GI50 up to about 1.1 µM and inactive = higher.
Labels: active, inactive

# COMPOUND, SYSTEM TESTED, CATEGORY LABEL
data = [
    ("CSc1ncc2c(C#N)c3sc4ccccc4n3c(=O)c2n1", "CCRF-CEM", "inactive"),
    ("C=C1CC(OC)(C(OC)C(=O)N[C@H]2OCO[C@H]3C2O[C@H](C[C@@H](COC)OC)C(C)(C)C3OC)O[C@H](C)[C@@H]1C (stereo not given in full)", "CCRF-CEM", "active"),
    ("COC(=O)N/N=C(\\C)CC(=O)Nc1cccc([N+](=O)[O-])c1", "CCRF-CEM", "inactive"),
    ("CC(C)(C)OC(=O)NNCC(O)COc1ccccc1 (stereo not given)", "CCRF-CEM", "inactive"),
    ("O=C1CC2(CCC(O)(c3ccc4ccccc4c3)C(C(=O)c3ccc4ccccc4c3)C2)C(=O)c2ccccc2N1 (stereo not given)", "CCRF-CEM", "inactive"),
    ("Cc1ccc(C2=Nc3ccccc3SC(c3cccc4c3OCO4)C2)cc1 (stereo not given)", "CCRF-CEM", "inactive"),
    ("CCOC(=O)C1OC(=O)CC1C1(C(=O)OCC)C=CC(=O)O1 (stereo not given)", "CCRF-CEM", "inactive"),
    ("Cc1ccccc1C(O)(c1nccn1C)c1nccn1C", "CCRF-CEM", "inactive"),
    ("O=C(O)CCC(NC(=O)c1ccc(Oc2nc3ccccc3nc2-c2ccccc2)cc1)C(=O)O (stereo not given)", "CCRF-CEM", "inactive"),
    ("COc1cccc(-c2cc(O)c3ccccc3n2)c1", "CCRF-CEM", "inactive"),
    ("CCOC(=O)c1cc(C2CCN(c3ccccc3)C2=O)c(C(=O)/C=C(/C)N)[nH]1 (stereo not given)", "CCRF-CEM", "inactive"),
    ("COc1cc([C@@H]2OC(=O)C3C2C(=O)O[C@H]3c2ccc(O)c(OC)c2)ccc1O (stereo not given in full)", "CCRF-CEM", "inactive"),
    ("CC(C)N(C(=O)C12C3(C(=O)C(C)(C)C)C4C5(C#N)C3C1(C(=O)C(C)(C)C)C5C42C(=O)C(C)(C)C)C(C)C (stereo not given)", "CCRF-CEM", "inactive"),
    ("COc1c(-c2ccc(F)cc2)oc2cc(O)cc(O)c2c1=O", "CCRF-CEM", "inactive"),
    ("C[N+](C)(C)CC(=O)N/N=C(\\C(=O)NC1=C(Cl)C(=O)c2ccccc2C1=O)C(C#N)c1csc(-c2ccc([N+](=O)[O-])cc2)n1 (stereo not given)", "CCRF-CEM", "inactive"),
    ("CCOC(=O)c1csc(NC(=O)CCN2CCN(C)CC2)n1", "CCRF-CEM", "inactive"),
    ("CCOC(=O)C1(c2ccccc2)CCCNCC1 (stereo not given)", "CCRF-CEM", "inactive"),
    ("Nc1nc(N)c2cc(Sc3cccc(C(F)(F)F)c3)ccc2n1", "CCRF-CEM", "active"),
    ("CCOC(=O)NC(Nc1ccc(F)c(F)c1)(C(=O)OCC)C(F)(F)F (stereo not given)", "CCRF-CEM", "inactive"),
    ("CCCC(=O)OCC(COC(=O)CCC)OC(=O)CCC", "CCRF-CEM", "inactive"),
]

---

- System: OVCAR-4
- PROTOCOL SUMMARY: NCI tumour cell line growth inhibition, 48 h
The source made the active and inactive calls. No stated cut-off is given here; in the data, active = GI50 up to about 1.1 µM and inactive = higher.
REPORTED PROPERTY: GI50

# COMPOUND, REPORTED
data = [
    ("COC(=O)C1(Cc2ccc3c(c2)CCC3)Cc2ccc3c(c2C1)CCC3 (stereo not given)", "17.2 µM (inactive)"),
    ("CCOC(=O)c1ccc(NCC#CCN2CCCCC2)cc1", "> 100 µM (inactive)"),
    ("O=C(c1ccccc1)c1cc(Cl)ccc1NCn1nnc2ccccc21", "9.46 µM (inactive)"),
    ("CC(=O)OCC1OC(n2c(C)c(/N=N/c3ccc(C)cc3)c(C)c(C#N)c2=S)C(OC(C)=O)C(OC(C)=O)C1OC(C)=O (stereo not given)", "41.4 µM (inactive)"),
    ("O=C(NS(=O)(=O)c1ccccc1)C(Cc1ccccc1)C(Cc1ccccc1)C(=O)NS(=O)(=O)c1ccccc1 (stereo not given)", "> 100 µM (inactive)"),
]

---

- Tested on: DU-145
- PROTOCOL SUMMARY: NCI tumour cell line growth inhibition, 48 h
The source made the active and inactive calls. Cut-off read from the data, not from the text of the source: active = GI50 up to about 1.1 µM and inactive = higher.
Labels: true (active), false (inactive)

# COMPOUND, CATEGORY LABEL
data = [
    ("NC(=O)NC(=O)c1cnccn1", "false"),
    ("COc1nc2ncc([C@@H](O)[C@H](O)CO)nc2c(=O)n1C", "false"),
    ("Nc1ccc(Oc2ccc(C3(c4ccc(Oc5ccc(N)c(O)c5)cc4)C4CC5CC(C4)CC3C5)cc2)cc1O", "false"),
    ("O=C(NCCCCCCCCNC(=O)c1cc(-c2ccccc2)nc2ccccc12)c1cc(-c2ccccc2)nc2ccccc12", "false"),
    ("CCc1c(CNc2ccc(C(=O)NC(CC(=O)O)C(=O)O)cc2)ccc2nc(N)nc(N)c12 (centres undefined)", "true"),
    ("O=C(O)CCC(NC(=O)c1ccc(Oc2nc3ccccc3nc2-c2ccccc2)cc1)C(=O)O (centres undefined)", "false"),
    ("Cn1cc(S(=O)(=O)NC(=O)Nc2ccc(Cl)cc2)c(=O)c2ccc(F)cc21", "false"),
    ("O=C1OCC=C1COC1OC(CO)C(O)C(O)C1O (centres undefined)", "false"),
    ("CSCC[C@H](NC(=O)[C@H](CC(C)C)NC(=O)[C@@H](Cc1ccccc1)NC(=O)CNC(=O)[C@@H](NC(=O)[C@H](C)NC(=O)[C@H](Cc1c[nH]c2ccccc12)NC(=O)[C@H](CCC(N)=O)NC(=O)[C@H](N)CC(N)=O)C(C)C)C(N)=O", "false"),
]

---

Measured GI50 accompanies every entry in the list below.
- System: SNB-19
- PROTOCOL SUMMARY: NCI tumour cell line growth inhibition, 48 h
Calls of active or inactive are those of the source. Cut-off read from the data, not from the text of the source: active = GI50 up to about 1.1 µM and inactive = higher.

# COMPOUND, GI50
records = [
    ("CC12CCC3C(CCC4CC(OC(=O)Cc5ccc(N(CCCl)CCCl)cc5)CCC43C)C1CCC(=O)N2 (stereo unspecified)", "18.3 µM (inactive)"),
    ("O=[N+]([O-])c1ccc(-c2csc(=[N+]3CCCCC3)s2)cc1", "4.88 µM (inactive)"),
    ("COC(=O)/C=C(C)/C=C/c1cc(C(C)=O)c(C)o1", "> 100 µM (inactive)"),
    ("Cc1ccc2[nH]c3c(c2c1)CCC/C3=N/N=C(N)N", "1.99 µM (inactive)"),
    ("CC1=N/C(=C\\c2cccc([N+](=O)[O-])c2)C(=O)O1", "> 100 µM (inactive)"),
    ("CCN(CC)CCN1c2ccccc2Sc2ccc3ccccc3c21", "15.3 µM (inactive)"),
    ("O=C(O)c1nccnc1C(=O)O", "> 100 µM (inactive)"),
    ("O=S(O)CCCSSSCCCS(=O)O", "> 100 µM (inactive)"),
    ("O=C1/C(=C/c2ccccc2S)N=C(c2ccccc2)N1c1ccc2c(c1)Sc1cc(N3C(=O)/C(=C/c4ccccc4S)N=C3c3ccccc3)ccc1N2", "16.7 µM (inactive)"),
    ("COc1ccccc1N1C(=O)/C(=C\\c2cccc(Oc3ccccc3)c2)SC1c1ccccc1 (stereo unspecified)", "31 µM (inactive)"),
    ("CC(NNC(=O)c1cc[n+]([BH2-]C#N)cc1)c1ccc(Cl)c(Cl)c1 (stereo unspecified)", "38.3 µM (inactive)"),
    ("O=C1C2C3SC(c4cc5ccccc5cc43)C2C(=O)N1c1ccccc1 (stereo unspecified)", "30.7 µM (inactive)"),
    ("Clc1ccc(CNc2nc3ccccc3nc2-c2cccs2)c(Cl)c1", "> 100 µM (inactive)"),
    ("COC(=O)c1c2c(c3[nH]c4ccccc4c3c1C(=O)OC)C(=O)C1=C(C2=O)C2(Cl)C(Cl)C(Cl)C1(Cl)C2(Cl)Cl (stereo unspecified)", "3.4 µM (inactive)"),
    ("Cc1cc(S(=O)(=O)NC2=NCc3nc4ccccc4n32)c(S)cc1Cl", "32.3 µM (inactive)"),
    ("COC(=O)C1=C(C(=O)OC)C2(C)OC1C(=O)C21CC1 (stereo unspecified)", "> 100 µM (inactive)"),
    ("O=C1CCCC2=C1CC1=C(CCCC1=O)N2c1cccc([N+](=O)[O-])c1", "> 100 µM (inactive)"),
    ("O=C(NCCCCCCCN1CCCCCCC1)C(C1CCCCC1)C1CCCCC1", "14.3 µM (inactive)"),
    ("COc1c(Cl)cc(NC(=S)C#N)cc1Cl", "32.9 µM (inactive)"),
    ("CC(C)(C)OC(=O)NNCC(O)COc1ccccc1 (stereo unspecified)", "> 100 µM (inactive)"),
    ("C[C@H]1/C(=C/C(=O)OCCN(C)C)CC[C@H]2[C@H]1C(=O)C[C@H]1C(C)(C)[C@@H](O)CC[C@]21C", "> 100 µM (inactive)"),
]
